Numbers sourced from PubChem BioAssay (EPA / NIEHS).

Read-out: Pro-epidermal growth factor (Homo sapiens)
Experiment: LTEA_HepaRG_EGF: Life Technologies and Expression Analysis (LTEA) Assay for Epidermal growth factor (EGF) using HepaRG (AID 2283489)
Settings: mRNA level, 48 h; actives raise or lower the signal
Description: LTEA_HepaRG is a cell based, multiplexed-readout assay that uses HepaRG, a human liver cell line, with measurements taken at 48 hours after chemical dosing on a 96-well plate.LTEA_HepaRG_EGF is one of 102 assay component(s) measured in the LTEA HepaRG cell culture assay. It is a marker of Cell proliferation, survival, death.Data from the assay component LTEA_HepaRG_EGF was analyzed into 1 endpoint. […]
Active and inactive are the calls of the source. How the source made its calls: active means hit-call score of the fitted dose curve at least 0.9, where 1 is the maximum; inactive means score below 0.9.
Reply using exactly one outcome from True for active, False for inactive

[
  {
    "compound": "CCC(C)OC(=O)N1CCCCC1CCO (configuration not stated)",
    "label": "False"
  }
]

What did this assay record as the result for S=C([S-])NCCNC(=S)[S-].[Mn+2] ?
True

Call for entry CSC(=O)c1cccc2nnsc12 :
False

Outcome logged for Oc1ccc(C(c2ccc(O)cc2)C(Cl)(Cl)Cl)cc1 in this assay:
False
